- PROCEDURE TEXT: chemical genetic growth profiling, strain panel (AID 1159580);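 note: tested at 20 µM; growth read once vehicle control cultures reached saturation at 30 °C; 1 = growth at the plate median or of vehicle wells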
- RECORDED CONDITIONS: S. cerevisiae deletion strains, growth OD, locus YBR023C, strain chs3
Among all 5,500 compounds or so, about 2,000 (36%) were called active. Roughly 18% stayed inconclusive and do not appear here. Cut-off read from the data, not from the text of the source: active = normalized growth mostly below about 0.91 (no sharp cut-off); inconclusive = no clear call, values can overlap the other calls; inactive = mostly above about 0.92. The list shows a part of the results.
// one of yes (1) (active), no (0) (inactive), no free text

Answered cases to consult:
INSERT INTO assay_data (molecule, assigned_class) VALUES
  ('O=C(C1CCCCC1)N1CC(=O)N2CCc3ccccc3C2C1 (stereo unspecified)', 'no (0)'),
  ('COc1ccc(-c2coc3cc(OC)cc(OC)c3c2=O)cc1', 'no (0)'),
  ('CC(C)C(=O)Nc1ccc([N+](=O)[O-])c(C(F)(F)F)c1', 'no (0)'),
  ('CC1(C)O[C@H]2[C@H](O)C[C@](O)(C(N)=O)C[C@H]2O1', 'no (0)'),
  ('C=CCCCCCCCCCCCC(O)CC(O)COC(C)=O (stereo unspecified) (tested in a mixture with another compound)', 'yes (1)'),
  ('O=C1OC(c2ccc(O)cc2)(c2ccc(O)cc2)c2ccccc21', 'no (0)');

Moving on to the next molecule.
[in] Status in this test for COC(=O)C(C)c1ccc(C(=O)c2cccs2)cc1 (stereo unspecified) ?
[out] no (0)

###

- PROCEDURE TEXT: chemical genetic growth profiling, strain panel (AID 1159580);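 note: tested at 20 µM; growth read once vehicle control cultures reached saturation at 30 °C; 1 = growth at the plate median or of vehicle wells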
- RECORDED CONDITIONS: S. cerevisiae strains, growth OD, strain wild type
Hit rate of the full screen: of about 5,500 compounds, about 2,000 (36%) were called active. Not shown: some 18% with an inconclusive outcome. No stated cut-off is given here; in the data, active means normalized growth mostly below about 0.91 (no sharp cut-off); inconclusive means no clear call, values can overlap the other calls; inactive means mostly above about 0.92. This is one part of the list.
Hi there, use one of these labels in your reply, thanks! active, inactive

# example entries with known answers
INSERT INTO results (chemical_smiles, assigned_class) VALUES
  ('CC(C)(C)CC(C)(C)c1ccc(O)c(Cc2ccc(Cl)cc2Cl)c1', 'inactive'),
  ('Oc1ccc(Cl)cc1Cc1cc(Cl)ccc1O', 'active'),
  ('CCN(CC)C(=O)c1cccc(C)c1', 'inactive');

[in] Please state the recorded outcome for this compound: "Nc1ccc(N=Nc2ccccc2)c(N)n1"
[out] inactive

[in] Outcome logged for "CCOC(=O)[C@H](CCc1ccccc1)N[C@@H](C)C(=O)N1[C@H](C(=O)O)C[C@@H]2CCC[C@@H]21" in this assay:
[out] inactive

[in] What is the recorded call for this compound in the test? "Cc1cccc(C)c1NC1=NCCCS1"
[out] inactive

###

- PROCEDURE TEXT: chemical genetic growth profiling, strain panel (AID 1159580);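 note: tested at 20 µM; growth read once vehicle control cultures reached saturation at 30 °C; 1 = growth at the plate median or of vehicle wells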
- RECORDED CONDITIONS: S. cerevisiae deletion strains, growth OD, locus YOR001W, strain rrp6, stronger effect = lower value
Hit rate of the full screen: of about 5,500 compounds, about 2,000 (36%) were called active. Roughly 18% stayed inconclusive and do not appear here. The list shows a part of the results.
Some compounds, each annotated with its measured normalized growth.
Give only the figure.

Examples from the recorded data:
INSERT INTO results (compound, measured) VALUES
  ('CCC(C)C(=O)O[C@H]1C[C@H](O)C=C2C=C[C@H](C)[C@H](CC[C@@H](O)C[C@@H](O)CC(=O)O)C21 (some centres not stated)', 0.992),
  ('CO/N=C(\C(=O)N[C@@H]1C(=O)N2C(C(=O)O)=C(COC(C)=O)CS[C@H]12)c1csc(N)n1', 1.01),
  ('CCCCC(=O)Oc1ccccc1C(=O)O', 1.01),
  ('CO/N=C(\C(=O)N[C@@H]1C(=O)N2C(C(=O)O)=C(CSc3nc(=O)c(O)nn3C)CS[C@H]12)c1csc(N)n1', 0.963),
  ('Cc1cccc(Nc2ccccc2C(=O)O)c1C', 0.938);

[in] Identify the reported normalized growth for the following entry. "COC(=O)C1=CCCN(C)C1"
[out] 0.971

[in] Return normalized growth (reported value) for this compound: "O=c1cc[nH]c(=S)[nH]1"
[out] 0.972

[in] Answer with the recorded normalized growth of "O=C1C=C2C=C[C@@H]3C[C@@]2(O1)[C@H]1CCCCN31" only.
[out] 0.94

[in] Provide measured normalized growth value, entry: C=CCSCC1Nc2cc(Cl)c(S(N)(=O)=O)cc2S(=O)(=O)N1 (configuration not stated)
[out] 0.977

[in] Complete the entry with normalized growth for CC1C[C@H]2CC(=O)[C@H]3CCCN4CCC[C@H]2[C@]34C1 (some centres not stated)
[out] 1.02

[in] Identify normalized growth associated with the compound "COC(=O)C[C@H]1C(C)(C)C(=O)[C@@H]2CC3=C(CC[C@]4(C)C3=CC(=O)O[C@H]4c3ccoc3)[C@@]1(C)C2=O"
[out] 0.946
